# % assay/degs, difference from T = 0 per record follows
Type: physicochemical
setup.conditions: pH 4.0; 2-8° C.; 96 h
Report the value in % with no unit label.

For CCC(CC)COC(=O)[C@H](C)N[P@](=O)(OC[C@H]1O[C@@](C(N)=O)(c2ccc3c(N)ncnn23)[C@H](O)[C@@H]1O)Oc1ccccc1 , what is its reported % assay/degs, difference from T = 0?
0.00

I would be grateful if you could share the reported % assay/degs, difference from T = 0 for N#C[C@@]1(c2ccc3c(N)ncnn23)O[C@H](CO)[C@@H](O)[C@H]1O .
0.00

If you can, please state the reported % assay/degs, difference from T = 0 value of N#C[C@@]1(c2ccc3c(N)ncnn23)O[C@H](COP(=O)(O)Oc2ccccc2)[C@@H](O)[C@H]1O .
0.01

Quick one: % assay/degs, difference from T = 0 for CCC(CC)COC(=O)[C@H](C)N[P@](=O)(OC[C@H]1O[C@@](C#N)(c2ccc3c(N)ncnn23)[C@H](O)[C@@H]1O)Oc1ccccc1 ?
0.2

---

experiment: Plasma PK of Formula Ia and metabolites after inhalation in African Green Monkeys
setup.conditions: both, monkey, in vivo, inhaled or intranasal, 0.536 mg/kg
measured.property: half-life
Provide a numeric answer, followed by its unit.

// half-life lookup, key: N#C[C@@]1(c2ccc3c(N)ncnn23)O[C@H](CO)[C@@H](O)[C@H]1O [Compound A]
7.1 h

---

Format: physicochemical
setup.conditions: pH 1.8; Ambient; 2 h
Parameter: % assay/degs, difference from T = 0. Scope: all listed entries.
Respond with a number, then the unit of measure.

{"structure": "N#C[C@@]1(c2ccc3c(N)ncnn23)O[C@H](COP(=O)(O)Oc2ccccc2)[C@@H](O)[C@H]1O", "% assay/degs, difference from T = 0": "0.08%"}

If you can, please state the reported % assay/degs, difference from T = 0 value of CCC(CC)COC(=O)[C@H](C)N[P@](=O)(OC[C@H]1O[C@@](C#N)(c2ccc3c(N)ncnn23)[C@H](O)[C@@H]1O)Oc1ccccc1 .
−0.1%

Any idea what % assay/degs, difference from T = 0 was measured for N#C[C@@]1(c2ccc3c(N)ncnn23)O[C@H](CO)[C@@H](O)[C@H]1O ?
0.00%

Dear colleague, I am looking for the recorded % assay/degs, difference from T = 0 of the following molecule: CCC(CC)COC(=O)[C@H](C)N[P@](=O)(OC[C@H]1O[C@@](C(N)=O)(c2ccc3c(N)ncnn23)[C@H](O)[C@@H]1O)Oc1ccccc1
0.00%

---

experiment: Plasma PK of Formula Ia and metabolites after inhalation in African Green Monkeys
setup.conditions: both, monkey, in vivo, inhaled or intranasal, 0.168 mg/kg
measured.property: AUC(0-t) (µM·h)
Write down the numeric answer in µM·h and omit the unit.

Quick check: AUC(0-t) of N#C[C@@]1(c2ccc3c(N)ncnn23)O[C@H](CO)[C@@H](O)[C@H]1O ?
0.191

---

Format: physicochemical
setup.conditions: pH 3.5; 2-8° C.; 72 h
measured.property: % assay/degs, difference from T = 0 (%)
Supply the numeric figure in %, leaving out any unit text.

Solved entries:
{"compound": "N#C[C@@]1(c2ccc3c(N)ncnn23)O[C@H](CO)[C@@H](O)[C@H]1O [Compound A]", "% assay/degs, difference from T = 0 / %": 0.00}
{"compound": "CCC(CC)COC(=O)[C@H](C)N[P@](=O)(OC[C@H]1O[C@@](C#N)(c2ccc3c(N)ncnn23)[C@H](O)[C@@H]1O)Oc1ccccc1 [Formula Ia]", "% assay/degs, difference from T = 0 / %": 0.7}
{"compound": "N#C[C@@]1(c2ccc3c(N)ncnn23)O[C@H](COP(=O)(O)Oc2ccccc2)[C@@H](O)[C@H]1O [Compound F]", "% assay/degs, difference from T = 0 / %": 0.01}

What does the data say about its % assay/degs, difference from T = 0? Entry: CCC(CC)COC(=O)[C@H](C)N[P@](=O)(OC[C@H]1O[C@@](C(N)=O)(c2ccc3c(N)ncnn23)[C@H](O)[C@@H]1O)Oc1ccccc1 [Compound G]
0.00

Taken from patent US11701372B2.
